target: MjNep1 (Methanocaldococcus jannaschii, UniProt Q57977 1-205); assay: fluorescence quenching
Sequence (Q57977 whole entry): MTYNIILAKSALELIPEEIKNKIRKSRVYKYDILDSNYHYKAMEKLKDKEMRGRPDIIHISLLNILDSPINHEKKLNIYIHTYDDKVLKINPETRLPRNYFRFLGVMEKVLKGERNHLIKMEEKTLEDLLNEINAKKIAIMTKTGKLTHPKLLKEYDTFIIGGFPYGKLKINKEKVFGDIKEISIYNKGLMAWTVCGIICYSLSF
recordedMetric: pKd
Just the number, please; pKd means minus log10 of the concentration in mol/L.

Before answering, review these 4 worked examples.
[[record]]
binder = "GGAUUCAACGCC (ssRNA) [RNA 6]"
observed = 8.15

[[record]]
binder = "UUGGAUUCAACGCCGG (ssRNA) [RNA 7 (complete hairpin loop 35)]"
observed = 8.52

[[record]]
binder = "UUCAACGC (ssRNA) [RNA 4]"
observed = 7.11

[[record]]
binder = "GAUUCAACGCC (ssRNA, pseudouridine at position 4 (nt 914)) [RNA 8]"
observed = 7.96


Asked: Which pKd value belongs to GAUUCAACGCC (ssRNA, pseudouridine at position 3 (nt 913)) [RNA 9] ?
Given back: 8.70

Asked: // repeat for UUCAACGCC (ssRNA) [RNA 5] and report
Given back: 8.10

Asked: // repeat for UCAACGCC (ssRNA, pseudouridine at position 1 (nt 914)) [RNA 12] and report
Given back: 8.15

Asked: // repeat for GGAUUCAAC (ssRNA) [RNA 3] and report
Given back: 5.78
